Tgt: Coagulation factor X (Homo sapiens)
Sequence (P00742 41-179 limits assumed): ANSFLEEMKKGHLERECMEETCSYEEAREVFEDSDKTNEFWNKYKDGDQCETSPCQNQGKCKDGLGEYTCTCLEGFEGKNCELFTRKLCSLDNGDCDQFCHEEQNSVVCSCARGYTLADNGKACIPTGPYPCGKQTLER
Sequence (P00742 235-488 limits assumed): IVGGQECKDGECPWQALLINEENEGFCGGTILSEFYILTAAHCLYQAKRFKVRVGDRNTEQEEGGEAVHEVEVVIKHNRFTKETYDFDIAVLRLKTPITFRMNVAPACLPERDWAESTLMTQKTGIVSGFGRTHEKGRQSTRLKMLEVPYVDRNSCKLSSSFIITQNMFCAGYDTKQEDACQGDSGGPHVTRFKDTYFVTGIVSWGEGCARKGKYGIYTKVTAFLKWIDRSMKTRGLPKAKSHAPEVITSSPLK
Measurement kind: Ki (nM)

(1) N=C(N)c1cccc(-n2cncc2C(=O)Nc2ccc(-c3ccccc3S(N)(=O)=O)cc2)c1.O=C(O)C(F)(F)F
(2) N=C(N)c1cccc(-n2nnnc2C(=O)Nc2ccc(-c3ccccc3S(N)(=O)=O)cc2)c1.O=C(O)C(F)(F)F
(3) N=C(N)c1cccc(-n2ccnc2C(=O)Nc2ccc(-c3ccccc3S(N)(=O)=O)cc2)c1.O=C(O)C(F)(F)F
(4) N=C(N)c1cccc(-c2[nH]c(O)nc2C(=O)Nc2ccc(-c3ccccc3S(N)(=O)=O)cc2)c1.O=C(O)C(F)(F)F
Please arrange the 4 compounds above from largest to smallest Ki value. Please list the labels in the order you were asked to rank them.
4, 1, 3, 2
(4: 2.3 nM, 1: 1.1 nM, 3: 0.33 nM, 2: 0.037 nM)

* * *

Tgt: Trypsin (Homo sapiens, UniProt P07477+P07478+P35030)
Method: Binding affinity towards human trypsin
Format: protein assay
Measurement kind: Ki (nM)

Please review the entries below; each comes with its answer.
{"Smiles notation": "N=C(N)c1cccc(-c2[nH]c(O)nc2C(=O)Nc2ccc(-c3ccccc3S(N)(=O)=O)cc2)c1.O=C(O)C(F)(F)F", "Tgt": "Trypsin (Homo sapiens, UniProt P07477+P07478+P35030)", "Reading unit": "nM", "Ki": 390}
{"Smiles notation": "N=C(N)c1cccc(-c2ncsc2C(=O)Nc2ccc(-c3ccccc3S(N)(=O)=O)cc2)c1.O=C(O)C(F)(F)F", "Tgt": "Trypsin (Homo sapiens, UniProt P07477+P07478+P35030)", "Reading unit": "nM", "Ki": 97}
{"Smiles notation": "N=C(N)c1cccc(-n2nnnc2C(=O)Nc2ccc(-c3ccccc3S(N)(=O)=O)cc2)c1.O=C(O)C(F)(F)F", "Tgt": "Trypsin (Homo sapiens, UniProt P07477+P07478+P35030)", "Reading unit": "nM", "Ki": 6.4}

(a) Cn1cc(C(=O)Nc2ccc(-c3ccccc3S(N)(=O)=O)cc2)c(-c2cccc(C(=N)N)c2)n1.O=C(O)C(F)(F)F
(b) N=C(N)c1cccc(-c2nocc2C(=O)Nc2ccc(-c3ccccc3S(N)(=O)=O)cc2)c1.O=C(O)C(F)(F)F
Please indicate which entry, a or b , has the lower recorded Ki value. Indicate which entry you chose by stating its label.
b
(b: 21 nM, a: 220 nM)

(1) Cc1cn(-c2cccc(C(=N)N)c2)c(C(=O)Nc2ccc(-c3ccccc3S(N)(=O)=O)cc2)n1.O=C(O)C(F)(F)F
(2) N=C(N)c1cccc(-n2cncc2C(=O)Nc2ccc(-c3ccccc3S(N)(=O)=O)cc2)c1.O=C(O)C(F)(F)F
Which item exceeds the other in Ki, 1 or 2 ? Indicate which entry you chose by stating its label.
2

* * *

Species: Oryctolagus cuniculus
Method: Antithrombotic efficacy was determined in a rabbit (A-V) shunt model
Type: functional
The reader will find reported ID50 values listed item by item below.
Field: numeric (µM/h/kg). Do not append units.

Please review the entries below; each comes with its answer.
{"Smiles notation": "Cc1nc(-c2cccc(C(=N)N)c2)c(C(=O)Nc2ccc(-c3ccccc3S(N)(=O)=O)cc2)s1.O=C(O)C(F)(F)F", "ID50, µM/h/kg": 0.5}
{"Smiles notation": "Cc1cc(C(=O)Nc2ccc(-c3ccccc3S(N)(=O)=O)cc2)n(-c2cccc(C(=N)N)c2)n1.O=C(O)C(F)(F)F", "ID50, µM/h/kg": 0.023}
{"Smiles notation": "N=C(N)c1cccc(-c2nocc2C(=O)Nc2ccc(-c3ccccc3S(N)(=O)=O)cc2)c1.O=C(O)C(F)(F)F", "ID50, µM/h/kg": 0.31}
{"Smiles notation": "N=C(N)c1cccc(-c2ocnc2C(=O)Nc2ccc(-c3ccccc3S(N)(=O)=O)cc2)c1.O=C(O)C(F)(F)F", "ID50, µM/h/kg": 0.54}

Shift focus to the following entry.
ID50 recorded for this compound, N=C(N)c1cccc(-n2nnnc2C(=O)Nc2ccc(-c3ccccc3S(N)(=O)=O)cc2)c1.O=C(O)C(F)(F)F , is 0.13

Origin of measurements: ChEMBL document CHEMBL1134213
